molecular target: T1, human SLITRK6 on cells (human, UniProt Q9H5Y7 27-841); assay: flow cytometry on SW780 cells
T1 construct: whole, on cells
Reported EC50 is given for each of the following binders.
quantity measured: EC50 (nM)

phA108-LD038 (8) (antibody, V domains shown, drug-linker LD038 on cysteines freed by TCEP reduction, DAR 8.0; positions not given, also called phA108 ADC) VH: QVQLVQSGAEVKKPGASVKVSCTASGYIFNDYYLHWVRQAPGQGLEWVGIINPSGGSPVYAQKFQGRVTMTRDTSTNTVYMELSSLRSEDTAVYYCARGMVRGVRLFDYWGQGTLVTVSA VL: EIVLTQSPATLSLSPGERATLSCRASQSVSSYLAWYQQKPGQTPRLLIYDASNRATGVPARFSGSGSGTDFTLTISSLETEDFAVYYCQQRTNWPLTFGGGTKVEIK | 0.29
Sirtratumab-LD038 (8) (antibody, V domains shown, drug-linker LD038 on cysteines freed by TCEP reduction, DAR 8.0; positions not given, also called Sirtratumab ADC) VH: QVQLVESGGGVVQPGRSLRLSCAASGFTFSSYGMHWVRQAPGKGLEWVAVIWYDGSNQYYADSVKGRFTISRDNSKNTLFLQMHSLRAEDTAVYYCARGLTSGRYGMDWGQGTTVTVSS VL: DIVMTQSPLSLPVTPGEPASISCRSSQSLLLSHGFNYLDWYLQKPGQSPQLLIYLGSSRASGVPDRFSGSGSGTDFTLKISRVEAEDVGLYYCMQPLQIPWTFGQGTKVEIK | 0.38
Sirtratumab (antibody, V domains shown, Prior-art benchmark antibody; also called Sirtratuzumab) VH: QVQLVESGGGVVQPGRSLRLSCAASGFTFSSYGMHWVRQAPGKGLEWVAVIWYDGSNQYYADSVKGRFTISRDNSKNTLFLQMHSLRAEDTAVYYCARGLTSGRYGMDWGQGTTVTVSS VL: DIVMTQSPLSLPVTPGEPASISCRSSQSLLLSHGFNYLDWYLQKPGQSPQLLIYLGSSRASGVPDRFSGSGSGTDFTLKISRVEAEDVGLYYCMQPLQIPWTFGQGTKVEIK | 0.39

Reference for the values: patent US20250296992A1
